Target: MAGL (recombinant wild-type) (Homo sapiens, UniProt Q99685)
Sequence (Q99685 1-303): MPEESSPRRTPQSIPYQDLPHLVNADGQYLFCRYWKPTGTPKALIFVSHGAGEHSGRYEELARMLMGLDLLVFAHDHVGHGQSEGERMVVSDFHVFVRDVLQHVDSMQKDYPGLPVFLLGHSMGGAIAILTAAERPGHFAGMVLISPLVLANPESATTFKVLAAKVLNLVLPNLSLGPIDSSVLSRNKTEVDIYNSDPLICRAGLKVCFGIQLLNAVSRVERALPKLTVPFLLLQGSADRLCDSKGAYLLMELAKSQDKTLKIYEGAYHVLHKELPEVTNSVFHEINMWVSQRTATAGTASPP
Experiment: 4-NPA assay: MAGL inhibitory activity by hydrolysis of 4-nitrophenylacetate, absorbance at 405 nm
Conditions: 4-NPA assay (values without footnote [b])
For each record, write down the corresponding pIC50.
On this scale, pIC50 is minus log10 of a concentration expressed in M (mol/L).

What does the data say about its pIC50? Entry: Cc1ccc2oc(N3CCN(C(=O)c4ccc(-c5cnn(C(C)(C)C)c5)cc4)CC3)nc2n1
7.43

What does the data say about its pIC50? Entry: Cc1ccc2oc(N3CCN(C(=O)c4ccc(-c5noc(C(C)(C)C)n5)nc4)CC3)nc2n1
6.06

What does the data say about its pIC50? Entry: Cc1ccc2oc(N3CCN(C(=O)c4cc(Cl)cc(N5CCS(=O)(=O)CC5)c4)CC3)nc2n1
5.82

What does the data say about its pIC50? Entry: Cc1ccc2oc(N3CCN(C(=O)c4ccc(OCc5cccc(Cl)c5)c(-c5ncc[nH]5)c4)CC3)nc2n1
6.20

What does the data say about its pIC50? Entry: O=C(c1ccc(-c2noc(C3(CF)CC3)n2)cc1)N1CCN(c2nc3nc(Cl)ccc3o2)CC1
7.00

====

Target: MAGL (recombinant wild-type) (Homo sapiens)
Sequence (Q99685 1-303): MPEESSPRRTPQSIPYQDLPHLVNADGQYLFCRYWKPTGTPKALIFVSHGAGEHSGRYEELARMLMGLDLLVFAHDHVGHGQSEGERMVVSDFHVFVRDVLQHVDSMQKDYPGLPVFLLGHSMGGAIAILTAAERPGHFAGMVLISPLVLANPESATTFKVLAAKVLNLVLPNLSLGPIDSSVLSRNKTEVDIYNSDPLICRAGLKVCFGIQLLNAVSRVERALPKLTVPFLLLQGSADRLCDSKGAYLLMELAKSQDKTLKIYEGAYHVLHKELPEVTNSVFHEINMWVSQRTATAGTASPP
Assay: 4-NPA assay: MAGL inhibitory activity by hydrolysis of 4-nitrophenylacetate, absorbance at 405 nm
Format: biochemical
Settings: 4-NPA assay (values without footnote [b])
experimental readout: pIC50
On this scale, pIC50 is minus log10 of a concentration expressed in M (mol/L).

What does the data say about its pIC50? Entry: Cc1ccc2oc(N3CCN(C(=O)c4cnc(OCC5(C)CC5)c(Cl)c4)CC3)nc2n1
6.87

What does the data say about its pIC50? Entry: CC(F)(F)Cc1nc(-c2ccc(C(=O)N3CCN(c4nc5nc(Cl)ccc5o4)CC3)cc2)no1
7.19

What does the data say about its pIC50? Entry: Cc1ccc2oc(N3CCN(C(=O)c4cnc(N5CCC6(C5)CC6(F)F)c(F)c4)CC3)nc2n1 (stereo not drawn)
6.82
